biological target: Virion infectivity factor (Human immunodeficiency virus type 1 group M subtype B (isolate BH10)) + Virion infectivity factor (Human immunodeficiency virus type 1 group M subtype B (isolate BRU/LAI)) + Virion infectivity factor (Human immunodeficiency virus type 1 group M subtype B (isolate PCV12)) + Virion infectivity factor (Human immunodeficiency virus type 1 group M subtype B (isolate HXB2)) + DNA dC->dU-editing enzyme APOBEC-3G (Homo sapiens) (UniProt P69720+P69721+P69722+P69723+Q9HC16); experiment: inhibitors of Vif binding to APOBEC3G peptide, primary screen, biochemical, TR-FRET, GST-Vif 1-94, biotin-A3G peptide, dose response retest (AID 1117319); settings: active compounds read high;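 note: Vif residues 1-94 fused to GST binding biotinylated APOBEC3G peptide 110-148; 0% = full assay without inhibitor and 100% = GST in place of GST-Vif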
The whole screen tested about 260,000 compounds, of which about 1,500 (0.58%) were called active. Inconclusive results (about 5%) are left out. A selection follows. Results with a measured potency or affinity are listed apart.
endpoint.name: inhibition (%)
Hi! Could you send only the number? It should be in %, unit omitted.

>>> df
                                   compound  readout_units  experimental_value
0  CCCCN1C(=O)C(CC(=O)NCc2ccco2)CC(C(=O)N(CC)CC)=C1C (stereo unspecified)              %                -1.7

Tell me measured inhibition for Cc1ccc(-c2nc(C#N)c(N3CCCCC3)o2)cc1 please.
-10.2

Output measured inhibition for this item: Cn1nnnc1SCc1cc(=O)n2ccsc2n1
8.97

For the compound NC(=O)CN1C(=O)/C(=c2\sc3nc(=O)c(Cc4ccccc4)nn3c2=O)c2ccccc21 , give its measured inhibition value.
-13.2

----------
target: Virion infectivity factor (Human immunodeficiency virus type 1 group M subtype B (isolate BH10)) + Virion infectivity factor (Human immunodeficiency virus type 1 group M subtype B (isolate BRU/LAI)) + Virion infectivity factor (Human immunodeficiency virus type 1 group M subtype B (isolate PCV12)) + Virion infectivity factor (Human immunodeficiency virus type 1 group M subtype B (isolate HXB2)) + DNA dC->dU-editing enzyme APOBEC-3G (Homo sapiens) (UniProt P69720+P69721+P69722+P69723+Q9HC16); experiment: inhibitors of Vif binding to APOBEC3G peptide, primary screen, biochemical, TR-FRET, GST-Vif 1-94, biotin-A3G peptide, dose response retest (AID 1117319); settings: active compounds read high;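 note: Vif residues 1-94 fused to GST binding biotinylated APOBEC3G peptide 110-148; 0% = full assay without inhibitor and 100% = GST in place of GST-Vif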
About 1,500 (0.58%) of roughly 260,000 compounds were called active. Inconclusive results (about 5%) are left out. Not all results are given here. Entries with a potency or affinity are not part of this list.
Listing of entries alongside the reported inhibition.
Only the number, expressed in %, is required.

Worked cases, answers included:
>>> df
                                   molecule  endpoint_name  readout_units  experimental_value
0  COc1ccc(NS(=O)(=O)c2cccc(C(=O)NNC(=O)c3ccccc3O)c2)cc1     inhibition              %                9.79
1  COc1ccc(C2C(C(=O)Nc3ccc(F)cc3)=C(C)Nc3nc(CCCO)nn32)cc1 (centres undefined)     inhibition              %               -0.37
2  CCCCCC(=O)Nc1cccc(C2=NOC3(C2)C[C@H](C(N)=O)N(C(=O)CCCCC)C3)c1 (some centres undefined)     inhibition              %                14.4

For C/C=C(\C)C(=O)Nc1cccc(C2=NOC3(C2)C[C@H](C(N)=O)N(C(=O)C(c2ccccc2)c2ccccc2)C3)c1 (some centres undefined) , write its inhibition.
17.8

Identify measured inhibition corresponding to C/C(=N\Nc1ccc(Cl)c(C(=O)O)c1)c1cccs1
-4.46

Reference for the values: PubChem BioAssay AID1117319
